molecular target: T1, cynomolgus monkey CD40 on cells (cynomolgus monkey, UniProt G7PG38 21-278); assay: FACS, CHO-K1/cyCD40 cells
T1 construct: also called cyCD40; CHO-K1/cyCD40
T1 sequence (G7PG38 entry or part of it limits assumed): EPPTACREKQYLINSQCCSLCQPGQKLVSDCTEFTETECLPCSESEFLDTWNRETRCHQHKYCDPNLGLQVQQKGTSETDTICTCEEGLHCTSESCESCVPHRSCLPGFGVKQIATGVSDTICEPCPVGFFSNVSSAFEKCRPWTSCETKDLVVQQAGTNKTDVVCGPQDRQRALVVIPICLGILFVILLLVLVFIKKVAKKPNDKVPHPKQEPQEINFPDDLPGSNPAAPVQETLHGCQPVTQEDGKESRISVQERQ
Quick reference for Maximum MFI among some binders

binder	Maximum MFI
PR006515 (antibody, human IgG1, kappa, V domains shown, PR003379 variant L:S93M; human IgG1 L234A, L235A, G237A) VH: QVQLVQSGAEVKKPGASVKVSCKASGYTFAGYYMYWVRQAPGQGLEWMGWINPDSGAPTYAQKFQGRVTMTRDTSISTAYMELSRLRSDDTAVYYCAREKIYYGSGNYYPSFDYWGQGTLVTVSS VL: DIQLTQSPSFLSASVGDRVTITCRASQGISSYLAWYQQKPGKAPKLLIYAASTLQSGVPSRFSGSGSGTEFTLTISSLQPEDFATYYCQQLNMYPWTFGQGTKVEIKR	50600 MFI
PR006497 (antibody, human IgG1, kappa, V domains shown, PR003379 variant L:N92Y; human IgG1 L234A, L235A, G237A) VH: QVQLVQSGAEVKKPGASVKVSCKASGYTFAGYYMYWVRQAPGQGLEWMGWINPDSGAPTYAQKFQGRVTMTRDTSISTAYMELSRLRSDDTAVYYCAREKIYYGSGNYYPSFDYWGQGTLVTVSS VL: DIQLTQSPSFLSASVGDRVTITCRASQGISSYLAWYQQKPGKAPKLLIYAASTLQSGVPSRFSGSGSGTEFTLTISSLQPEDFATYYCQQLYSYPWTFGQGTKVEIKR	51700 MFI
PR006507 (antibody, human IgG1, kappa, V domains shown, PR003379 variant L:S93E; human IgG1 L234A, L235A, G237A) VH: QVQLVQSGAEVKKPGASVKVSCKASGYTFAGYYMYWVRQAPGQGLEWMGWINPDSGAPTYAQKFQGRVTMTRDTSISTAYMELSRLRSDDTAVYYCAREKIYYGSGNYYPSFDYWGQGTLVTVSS VL: DIQLTQSPSFLSASVGDRVTITCRASQGISSYLAWYQQKPGKAPKLLIYAASTLQSGVPSRFSGSGSGTEFTLTISSLQPEDFATYYCQQLNEYPWTFGQGTKVEIKR	49300 MFI
PR006501 (antibody, human IgG1, kappa, V domains shown, PR003379 variant L:N92Q; human IgG1 L234A, L235A, G237A) VH: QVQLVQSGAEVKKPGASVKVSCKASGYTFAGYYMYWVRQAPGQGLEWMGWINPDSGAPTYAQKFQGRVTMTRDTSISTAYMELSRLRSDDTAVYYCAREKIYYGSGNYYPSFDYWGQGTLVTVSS VL: DIQLTQSPSFLSASVGDRVTITCRASQGISSYLAWYQQKPGKAPKLLIYAASTLQSGVPSRFSGSGSGTEFTLTISSLQPEDFATYYCQQLQSYPWTFGQGTKVEIKR	48200 MFI
PR006512 (antibody, human IgG1, kappa, V domains shown, PR003379 variant L:S93T; human IgG1 L234A, L235A, G237A) VH: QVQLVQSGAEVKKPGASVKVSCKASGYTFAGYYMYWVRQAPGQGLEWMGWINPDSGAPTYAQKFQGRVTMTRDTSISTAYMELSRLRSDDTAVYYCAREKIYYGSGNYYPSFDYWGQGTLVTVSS VL: DIQLTQSPSFLSASVGDRVTITCRASQGISSYLAWYQQKPGKAPKLLIYAASTLQSGVPSRFSGSGSGTEFTLTISSLQPEDFATYYCQQLNTYPWTFGQGTKVEIKR	45800 MFI
PR006509 (antibody, human IgG1, kappa, V domains shown, PR003379 variant L:S93L; human IgG1 L234A, L235A, G237A) VH: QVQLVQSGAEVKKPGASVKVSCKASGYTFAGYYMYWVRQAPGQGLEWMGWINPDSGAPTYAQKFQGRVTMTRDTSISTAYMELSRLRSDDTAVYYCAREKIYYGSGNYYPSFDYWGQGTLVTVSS VL: DIQLTQSPSFLSASVGDRVTITCRASQGISSYLAWYQQKPGKAPKLLIYAASTLQSGVPSRFSGSGSGTEFTLTISSLQPEDFATYYCQQLNLYPWTFGQGTKVEIKR	45300 MFI
PR006500 (antibody, human IgG1, kappa, V domains shown, PR003379 variant L:N92M; human IgG1 L234A, L235A, G237A) VH: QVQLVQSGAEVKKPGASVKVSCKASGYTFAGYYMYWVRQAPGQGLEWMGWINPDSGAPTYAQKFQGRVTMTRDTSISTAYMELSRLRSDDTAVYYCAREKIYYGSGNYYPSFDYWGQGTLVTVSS VL: DIQLTQSPSFLSASVGDRVTITCRASQGISSYLAWYQQKPGKAPKLLIYAASTLQSGVPSRFSGSGSGTEFTLTISSLQPEDFATYYCQQLMSYPWTFGQGTKVEIKR	48500 MFI
PR006494 (antibody, human IgG1, kappa, V domains shown, PR003379 variant L:N92T; human IgG1 L234A, L235A, G237A) VH: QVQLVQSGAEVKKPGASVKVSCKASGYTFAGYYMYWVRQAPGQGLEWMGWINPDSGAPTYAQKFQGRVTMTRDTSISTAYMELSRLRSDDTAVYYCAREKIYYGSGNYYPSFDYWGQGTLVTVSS VL: DIQLTQSPSFLSASVGDRVTITCRASQGISSYLAWYQQKPGKAPKLLIYAASTLQSGVPSRFSGSGSGTEFTLTISSLQPEDFATYYCQQLTSYPWTFGQGTKVEIKR	49600 MFI
PR006496 (antibody, human IgG1, kappa, V domains shown, PR003379 variant L:N92F; human IgG1 L234A, L235A, G237A) VH: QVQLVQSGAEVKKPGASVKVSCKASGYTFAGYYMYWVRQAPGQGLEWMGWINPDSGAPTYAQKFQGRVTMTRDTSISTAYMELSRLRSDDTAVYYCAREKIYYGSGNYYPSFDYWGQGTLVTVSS VL: DIQLTQSPSFLSASVGDRVTITCRASQGISSYLAWYQQKPGKAPKLLIYAASTLQSGVPSRFSGSGSGTEFTLTISSLQPEDFATYYCQQLFSYPWTFGQGTKVEIKR	49700 MFI
PR006514 (antibody, human IgG1, kappa, V domains shown, PR003379 variant L:S93V; human IgG1 L234A, L235A, G237A) VH: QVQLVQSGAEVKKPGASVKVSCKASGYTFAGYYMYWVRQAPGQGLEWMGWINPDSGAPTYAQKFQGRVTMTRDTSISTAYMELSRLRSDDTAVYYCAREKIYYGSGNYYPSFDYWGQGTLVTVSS VL: DIQLTQSPSFLSASVGDRVTITCRASQGISSYLAWYQQKPGKAPKLLIYAASTLQSGVPSRFSGSGSGTEFTLTISSLQPEDFATYYCQQLNVYPWTFGQGTKVEIKR	45100 MFI

All values here come from patent US20250215100A1.
